protein stability index: recorded values
# Tested on: Saccharomyces cerevisiae;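 note: PSI is a weighted mean of sequencing reads over stability bins, variants kept only with over 10 reads, mCherry proximal and sfGFP distal, peptide attached via GGGS linker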
# assayOverview: protein stability index of tFT-peptide fusion (C-terminal peptide) (PSI (0-1 scale)); higher = more stable (slower turnover)
# conditionInfo: genetic background: wild type; temperature: 30 C
parameter: protein stability index

> print(dat)
        residues  obsvalue
 1  FCSNLLSMVIAV       0.3
 2  AMFQLRLLVGSV     0.391
 3  LPIFWVWFSVFR     0.257
 4  CSRDVFLFIKFL     0.075
 5  GCILSLCYAVST     0.318
 6  TVVIFLCSYITT     0.122
 7  LGGVGTLVHCFV     0.375
 8  YAFYLFSRILAA     0.208
 9  NYVVFVRGIKIT     0.114
10  EWSRVVRWNWDG     0.148
11  AGGLLIGSVGVG     0.444
12  PSPVRSSYASTL     0.665
13  ILVLKFLRLLSA     0.365
14  YPCRLFVRSLLA     0.235
15  SQKKKIKKYKET     0.147
16  IKWRCLFCVCVL     0.375
17  YVLLSRVSVFSA     0.329
18  GFFFWTMCFWVV     0.194
19  SGFLRFRGLVCY     0.278
20  ISPCLVRLWYRI     0.102
21  CCFVGLRYVLWV     0.288
22  GYRGRITRLVNG     0.168
23  IWYGLFWLRFWV     0.423
24  LLVVGPVRLVVH      0.18
25  PFFFSFILVLFW     0.186
26  VLCFFWWWCRVC     0.324
27  SRKRIVALMLSG      0.18
28  YRGFFIGKLMLV     0.113
29  GVLLLGSYQWVG     0.373
30  YNTRLCTFSCML     0.698
31  PIKIYGYLTTVV     0.475
32  YCFLSWVLMCCF     0.386
33  TPYIFVLACLHV     0.309
34  FGWLELVWFDLG     0.531
35  KMIVWKESIKRE     0.667
36  YLGLSAVAILWM     0.412
37  FFVFMAKLRTCN     0.127
38  SVFFRPVLICCA    0.0558
39  FLQIIIFSRVLF     0.364
40  EGGLGDRLLGVG     0.518
41  GTRREFVILYLF     0.133
42  VRIGCSLLFFLP     0.501
43  PISLYFVWFFFF     0.147
44  CWFGLVSLFWVV     0.299
45  VVRMRPRLFSLY     0.208
46  FFCYFFEFFICG     0.323
47  FGLVAYPLWYIS    0.0991
48  VAALFPPLRFLN     0.122
49  PPSPVPPIWYLA     0.261
50  KERNKISQRKLT     0.185
51  GPPPAPSPTPSP     0.687
52  DWTVSYLWVTAL     0.208
53  WAIMGLIIFCLF     0.244
54  LFLPFLPTLALL     0.623
55  ARWNTDRRRRQL     0.253
56  PWLLHTPLSLVF     0.349
57  FCCSVFCFLCLY     0.492
58  LFHSFFLYCLMS     0.541
59  CVEACVWYNAGL     0.687
60  CGPLLVTLVLSM     0.306
61  SFVVVFTFFFGC     0.258
62  PETSRFALNEWG      0.68
63  PVWLFLVRAIKG      0.33
64  LSVVVLVLCVLL     0.283
65  RRLYERNKNNKQ     0.387
66  VYCLFLPLGVAF     0.171
67  VWSSSYVPLGVY     0.271
68  PVKGTMIKAKNT     0.193
69  YFNGLLPLVLVF    0.0601
70  VFWLLVGLGCFS     0.417
71  TIKGRLNVRKIE     0.463
72  FICLLFSCVYLG     0.382
73  SVYLYFQVVAYG    0.0724
74  SSGAVGLVIVVC     0.205
75  LFLLFLCLSSLF     0.436
76  FLCVLYFFLCVE     0.224
77  DFPGDIILRLIA     0.155
78  FVSGRFLFFFVL     0.144
79  LLRLCGFPLGVG       0.4
80  KKKKNIKIKKQI     0.215
81  VCVVVLVGVVFL      0.24
82  FLTSPSVWRYLF     0.139
